B1: glmS ribozyme (parent)
chain: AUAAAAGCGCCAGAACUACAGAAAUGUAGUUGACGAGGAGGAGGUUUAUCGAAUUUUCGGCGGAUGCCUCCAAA

Variants of: B1
Test: self-cleavage kobs at 10000 uM GlcN6P; higher = faster cleavage; RNA array
Settings: with glucosamine-6-phosphate
Variants at the floor of the assay were thinned out.
assay.endpoint: self-cleavage kobs at 10000 uM GlcN6P (s⁻¹)

AUAAAAGCGCCAGAAUUACAGAAAUGUAGUUGACGAGGGUGAGGUUUAUCGAAUUUUCGGCGGAUGCCUCCAAA [C16U A39G G40U]: 0.0008
AUAAAAGCGCCAGAACUACAGAAAUGUAGUUGACGAGGUGGAGGUUUAUCGAAUUUUCGGCGGAUGGCUCAAAA [A39U C67G C71A]: 7.84e-05
AUAAAAGCGCCAGAGCUACAGAAAUGUAGUUGACGAGGAGGAGGUUUAUCGAAUUUUCGACGGAUGCCUCCAAA [A15G G60A]: 3.03e-05
AUAAAAGCGCCAGAACUACAGAAAUGUAGUUGACGAGGAGGAGGUUUUUCGAAUUAUCGGCGGAUGCUUCCAAA [A48U U56A C68U]: 7.52e-05
AUAAAAGCGCCAUAACUACAGAAAUGUAGUUGACGAGGAGGGGGUUUAUCGAAUUUUCGGCGGAUGCCUCCAAA [G13U A42G]: 0.00117
AUAAAAGCGCCAGAACUACAGAAAUGUAGUUGACGAGGAAGAGGUUUAUCGAAUUUUCGGCGGAGGCCUCCAAA [G40A U65G]: 0.00192
AUAAAAGCGCCAGAACUACAGAAAUGUAGAUGACGAGGAGGAGGUUUAUCGAACUUUCGGCGGAUGCCUCCAAA [U30A U54C]: 0.00543
AUAAAAGCGCCAGAACUACAGAAAUGUAGUUGACGAGGAAGAGGUUUAUCGAAUUUUCGGCGGAUGCCCCCAAA [G40A U69C]: 5.59e-05
AUAAAAGCGCCAGAACUACAGAAAUGUAGGUGACGAAGAGGUGGUUUAUCGAAUUUUCGGCGGAUGCCUCCAAA [U30G G37A A42U]: 9.36e-05
AUAAAAGCGCCAGAACUACAGAAAUGUAGGUGACGAGGAGGAGGUUUAUCGACUUUUCGGCGGAUGCCUCCAAA [U30G A53C]: 0.00177
AUAAAAGCGCCAGAACUACAGAAAUGUAGUUGACGAGGAGGAGGUUUAUCGAAUUUUCGGCGGAUAUCUCCAAA [G66A C67U]: 0.00498
AUAAAAGCGCCAGAACUACAGAAAUGUAGAUGACGAGGAGGAGGUUUAGCGAAUUUUCGGCGGAUGCCUUCAAA [U30A U49G C70U]: 8.4e-05
AUAAAAGCGCCUGAACUACAGAAAUGUAGUUGACGAGGAGGAGGUUUAUCGAGUUUUCGGCGGAUGCCUCCAAA [A12U A53G]: 0.125
AUAAAAGCGCCUGAACUACAGAAAUGUAGUUGACGAGGAGGAGGUUUAUCGUAUUUUCGGCGGAUGCCUCCAAA [A12U A52U]: 0.00123
AUAAAAGCGCCAGACCUACAGAAAUGUAGUUGACGAGGAGGAGGUUUAUCGAAUUUUCGGCGGACGCCUCCAAA [A15C U65C]: 6.14e-05
AUAAAAGCGCCCGAACUACAGAAAUGUAGUAGACGAGGAGGGGGUUUAUCGGAUUUUCGGCGGAUGCCUCCAAA [A12C U31A A42G A52G]: 0.000429
AUAAAAGCGCCAAAACUACAGAAAUGUAGUUGACGAGGAGGAGGUUUAUCGAAUUUUCGGCGGAUGCCUCCAAA [G13A]: 0.000945
AUAAAAGCGCCAGAACUACAGAAAUGUAGUUGACGAGGAGGAGGCUUAUCGAAUUUUCGGCGGAUGCCUUCAAA [U45C C70U]: 0.00646
AUAAAAGCGCCAGAACUACAGAAAUGUAGUUGACGAGUAGGAGGUUUAUCGAAUUGUCGGAGGAUGCGUCCAAA [G38U U56G C61A C68G]: 6.19e-05
AUAAAAGCGCCAGCACUACAGAAAUGUAGUUGACGAGGAGGGGGUUUAUCGAAUUUUCGGCGGAUACCUCCAAA [A14C A42G G66A]: 0.00177
AUAAAAGCGCCAGAACUACAGAAAUGUAGUUGACGAGGAGGAGGUUUUUCGAAUUUUCGGCGGAUGUCUCCAAA [A48U C67U]: 0.00018
AUAAAAGCGCCAGAACUACAGAAAUGUAGUGAACGAGGAGGAGGUUUAUCGAAUUGUCGGCGGAUGCCUCCAAA [U31G G32A U56G]: 0.000522
AUAAAAGCGCCGGAACUACAGAAAUGUAGUUGACGAGGAGGAGGUUUAUCGAAUUUUCGGCGGAUACCUCCAAA [A12G G66A]: 0.000496
AUAAAAGCGCCAGCACUACAGAAAUGUAGUUGACGAGGAGGAGGUUUAUCGAAUUUUCGGCGGAUGCCUCAAAA [A14C C71A]: 0.000984
AUAAAAGCGCCAGAACUACAGAAAUGUAGUUGACGAGGAGGAGGUUUAUCGAAUUAUAGGCGGAUGCCUCCAAA [U56A C58A]: 0.000605
AUAAAAGCGCCAGAACUACAGAAAUGUAGUUGACGAGGAGGAGGUUUAUCGAUUUUCCGGCGGAUGCCUCCAAA [A53U U57C]: 0.000151
AUAAAAGAGCCAGAACUACAGAAAUGUAGUUGACGAGGAGGAGGUUUAUCGAAUUUUCGGCGGAUGCCGCCAAA [C8A U69G]: 0.000773

src = the supplement of paper PMC7125110
